Item-by-item account of pIC50
Assay: Inhibition of alpha glucosidase (unknown origin) using p-nitrophenyl alpha-D-glucopyranoside as substrate pretreated for 15 mins followed by substrate addition after 30 mins by spectrophotometric method
Design: species or system Homo sapiens
Scale for pIC50: -log10 of concentration given in mol/L; no unit attached.

Give the measured pIC50 of O=C(N/N=C/c1coc2ccccc2c1=O)c1ccc(O)cc1 . 4.40

Please find the next molecule below.
Give the measured pIC50 of O=c1c(/C=N/Nc2cccc(Cl)c2)coc2cc(O)ccc12 . 4.01

----------
Experiment: Inhibition of alpha glucosidase (unknown origin) using p-nitrophenyl alpha-D-glucopyranoside as substrate pretreated for 15 mins followed by substrate addition after 30 mins by spectrophotometric method
Parameters: species or system Homo sapiens
MEASUREMENT KIND: IC50 (µM)
Please give a number only; it is taken to be in µM.

Request the reported IC50 associated with Nc1ccc(C(=O)N/N=C/c2coc3ccccc3c2=O)cc1 96.9

Entry CCOC(=O)N/N=C/c1coc2cc(O)ccc2c1=O : reported IC50 = ? 95.4

For the compound shown here, O=C(N/N=C/c1coc2cc(O)ccc2c1=O)c1cccs1 , give the reported IC50. 60.8

***
I am curious: what IC50 value has been reported for O=C(N/N=C/c1coc2cc(O)ccc2c1=O)c1ccccc1 ? 45.7

Would you mind telling me what IC50 value was observed for O=c1c(/C=N/Nc2ccccc2)coc2ccccc12 ? 26.7
